CONDITION LABEL: in sec-butanol, 303.15 K
ASSAY ENDPOINT: solubility (mole fraction)
In your answer, state the number alone without any accompanying words.

## Input # solubility (mole fraction) lookup, item CC(C)(C)OC(=O)N[C@@H](CC(N)=O)C(=O)O
## Output 0.00245

----------
CONDITION LABEL: in sec-butanol, 323.15 K
ASSAY ENDPOINT: solubility (mole fraction)
In your answer, state the number alone without any accompanying words.

## Input # solubility (mole fraction) lookup, item CC(C)(C)OC(=O)N[C@@H](CC(N)=O)C(=O)O
## Output 0.00619

----------
CONDITION LABEL: in acetonitrile, 283.15 K
ASSAY ENDPOINT: solubility (mole fraction)
In your answer, state the number alone without any accompanying words.

## Input # solubility (mole fraction) lookup, item CC(C)(C)OC(=O)N[C@@H](CC(N)=O)C(=O)O
## Output 0.000136

----------
CONDITION LABEL: in n-propanol, 283.15 K
ASSAY ENDPOINT: solubility (mole fraction)
In your answer, state the number alone without any accompanying words.

## Input # solubility (mole fraction) lookup, item CC(C)(C)OC(=O)N[C@@H](CC(N)=O)C(=O)O
## Output 0.00105

----------
CONDITION LABEL: in acetone, 303.15 K
ASSAY ENDPOINT: solubility (mole fraction)
In your answer, state the number alone without any accompanying words.

## Input # solubility (mole fraction) lookup, item CC(C)(C)OC(=O)N[C@@H](CC(N)=O)C(=O)O
## Output 0.00166

----------
CONDITION LABEL: in ethanol, 288.15 K
ASSAY ENDPOINT: solubility (mole fraction)
In your answer, state the number alone without any accompanying words.

## Input # solubility (mole fraction) lookup, item CC(C)(C)OC(=O)N[C@@H](CC(N)=O)C(=O)O
## Output 0.00253

----------
CONDITION LABEL: in ethanol, 313.15 K
ASSAY ENDPOINT: solubility (mole fraction)
In your answer, state the number alone without any accompanying words.

## Input # solubility (mole fraction) lookup, item CC(C)(C)OC(=O)N[C@@H](CC(N)=O)C(=O)O
## Output 0.00632

----------
CONDITION LABEL: in 2-butanone, 293.15 K
ASSAY ENDPOINT: solubility (mole fraction)
In your answer, state the number alone without any accompanying words.

## Input # solubility (mole fraction) lookup, item CC(C)(C)OC(=O)N[C@@H](CC(N)=O)C(=O)O
## Output 0.000641

----------
CONDITION LABEL: in ethanol, 293.15 K
ASSAY ENDPOINT: solubility (mole fraction)
In your answer, state the number alone without any accompanying words.

## Input # solubility (mole fraction) lookup, item CC(C)(C)OC(=O)N[C@@H](CC(N)=O)C(=O)O
## Output 0.0031

----------
CONDITION LABEL: in n-propanol, 288.15 K
ASSAY ENDPOINT: solubility (mole fraction)
In your answer, state the number alone without any accompanying words.

## Input # solubility (mole fraction) lookup, item CC(C)(C)OC(=O)N[C@@H](CC(N)=O)C(=O)O
## Output 0.00145

----------
CONDITION LABEL: in n-butanol, 308.15 K
ASSAY ENDPOINT: solubility (mole fraction)

## Input # solubility (mole fraction) lookup, item CC(C)(C)OC(=O)N[C@@H](CC(N)=O)C(=O)O
## Output 0.00189
